Molecular target: Protein phosphatase methylesterase 1 (Homo sapiens) (UniProt Q9Y570)
Sequence (Q9Y570 whole entry, looked up): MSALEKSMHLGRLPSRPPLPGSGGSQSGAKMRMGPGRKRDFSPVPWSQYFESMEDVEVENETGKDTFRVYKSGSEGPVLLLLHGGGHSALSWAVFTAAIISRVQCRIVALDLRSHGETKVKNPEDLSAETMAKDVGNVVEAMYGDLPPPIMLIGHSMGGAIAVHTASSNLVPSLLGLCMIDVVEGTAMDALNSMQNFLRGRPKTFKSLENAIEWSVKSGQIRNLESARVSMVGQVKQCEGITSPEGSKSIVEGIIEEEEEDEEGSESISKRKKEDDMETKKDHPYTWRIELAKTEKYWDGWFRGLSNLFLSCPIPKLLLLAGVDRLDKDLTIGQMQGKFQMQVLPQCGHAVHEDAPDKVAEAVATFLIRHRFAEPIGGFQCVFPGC
Test: inhibitors of human PME-1 in Maybridge library (AID 2291)
Details: recombinant PME-1, FP-Rh probe fluorescence polarization; at 9 µM; active compounds read high
The campaign covered roughly 16,000 compounds. About 75 (0.5%) were called active. This excerpt belongs to a sample that is enriched for actives.
Readout: inhibition (%)

>  <Molecule>
O=c1[nH]/c(=C/c2ccc(OC(F)(F)F)cc2)c(=O)[nH]/c1=C/c1ccc(OC(F)(F)F)cc1

>  <Readout>
inhibition

>  <Recorded value>
-0.938

$$$$
>  <Molecule>
N#CC(Cc1ccccc1)Sc1ccccc1 (stereo unspecified)

>  <Readout>
inhibition

>  <Recorded value>
3.19

$$$$
>  <Molecule>
O=C(O)c1nccnc1C(=O)O

>  <Readout>
inhibition

>  <Recorded value>
5.09

$$$$
>  <Molecule>
Cc1ccc(NC(=S)C(C#N)C(=O)N2CCCC2)c(C)c1 (stereo unspecified)

>  <Readout>
inhibition

>  <Recorded value>
-4.1

$$$$
>  <Molecule>
CC(C)CC(NC(=O)OC(C)(C)C)C(=O)OCc1ccc(CC(=O)O)cc1 (stereo unspecified)

>  <Readout>
inhibition

>  <Recorded value>
-2.54

$$$$
>  <Molecule>
O=C1CSC(=S)N1c1ccc(N2CCCCCC2)c(N2C(=O)CSC2=S)c1

>  <Readout>
inhibition

>  <Recorded value>
-4.27

$$$$

These data points were gathered from PubChem BioAssay AID2291.
